- Test system: HCT-15
- ASSAY_INFO: Growth inhibition of human HCT15 cells after 48 hrs by SRB assay
- Assay type: functional
- ASSAY_CONTEXT: HCT-15, 48 h
REPORTED_METRIC: GI50 (nM)
Numbers only here, please. The scale is nM.

Worked examples, 3 compounds total:
compound CCCCCCCCCCCCCCCCS(=O)(=O)N(C)CC[N+](C)(CC)CC , GI50 observed: 1490

compound CCCCCCCCCCCCCCCCS(=O)(=O)NCC(C)(C)C[N+](C)(C)CC , GI50 observed: 1350

compound CCCCCCCCCCCCCCS(=O)(=O)N(C)CCC[N+](C)(C)CC , GI50 observed: 1270

New cases:
compound CCCCCCCCCCCCCCS(=O)(=O)N(C)CC[N+](C)(C)C , GI50 observed: 750

compound CCCCCCCCCCCCCCCC(=O)N1CC[N+](C)(C)CC1 , GI50 observed: 580

compound C=CC[N+](C)(C)CCN(C)S(=O)(=O)CCCCCCCCCCCCCC , GI50 observed: 1710

compound C=CC[N+](C)(C)CCN(C)S(=O)(=O)CCCCCCCCCCCCCCCC , GI50 observed: 4730

compound CCCCCCCCCCCCCCS(=O)(=O)NCC(C)(C)C[N+](C)(C)C , GI50 observed: 1700

compound C=CC[N+](CC)(CC)CCN(C)S(=O)(=O)CCCCCCCCCCCCCCCC , GI50 observed: 1810

compound CCCCCCCCCCCCCCS(=O)(=O)N(C)CC[N+](C)(C)CC , GI50 observed: 1610

compound CCCCCCCCCCCCCCCCS(=O)(=O)NCC(C)(C)C[N+](C)(C)C , GI50 observed: 560

compound CCCCCCCCCCCCCCCCS(=O)(=O)NCCC[N+](C)(C)C , GI50 observed: 860

compound CCCCCCCCCCCCCCS(=O)(=O)N(C)CC[N+](CC)(CC)CC , GI50 observed: 3460

compound CCCCCCCCCCCCCCS(=O)(=O)N(C)CCC[N+](C)(C)C , GI50 observed: 680

compound CCCCCCCCCCCCCCS(=O)(=O)N(C)CC[N+](C)(CC)CC , GI50 observed: 2350

compound CCCCCCCCCCCCCCS(=O)(=O)NCCC[N+](C)(C)CC , GI50 observed: 1140

compound CCCCCCCCCCCCCCS(=O)(=O)NCCC[N+](C)(C)C , GI50 observed: 940

compound CCCCCCCCCCCCCCCCS(=O)(=O)N(C)CC[N+](C)(C)CC , GI50 observed: 1260

compound CCCCCCCCCCCCCCCCS(=O)(=O)N(C)CCC[N+](C)(C)C , GI50 observed: 780

compound CCCCCCCCCCCCCCCCS(=O)(=O)N(C)CCC[N+](C)(C)CC , GI50 observed: 780

compound C=CC[N+](CC)(CC)CCN(C)S(=O)(=O)CCCCCCCCCCCCCC , GI50 observed: 2030

compound CCCCCCCCCCCCCCCCS(=O)(=O)N(C)CC[N+](CC)(CC)CC , GI50 observed: 1610

compound CCCCCCCCCCCCCCCCS(=O)(=O)N(C)CC[N+](C)(C)C , GI50 observed: 700

compound CCCCCCCCCCCCCCCCS(=O)(=O)NCCC[N+](C)(C)CC , GI50 observed: 1200

Cited source: ChEMBL document CHEMBL2434921
